biological target: human GR (Homo sapiens); construct: naturally expresses the human GR; endogenous in cells; experiment: Trans-activation modulation of glucocorticoid receptor (GRAMMER), MMTV-LUC reporter in A549 cells; format: cell-based; conditions: A549, A549 cells; Emax relative to the activity obtained with 300 nM dexamethasone; read-out: Transactivation A549 Cells Grammer Emax (%)
Sequence (P04150 whole entry): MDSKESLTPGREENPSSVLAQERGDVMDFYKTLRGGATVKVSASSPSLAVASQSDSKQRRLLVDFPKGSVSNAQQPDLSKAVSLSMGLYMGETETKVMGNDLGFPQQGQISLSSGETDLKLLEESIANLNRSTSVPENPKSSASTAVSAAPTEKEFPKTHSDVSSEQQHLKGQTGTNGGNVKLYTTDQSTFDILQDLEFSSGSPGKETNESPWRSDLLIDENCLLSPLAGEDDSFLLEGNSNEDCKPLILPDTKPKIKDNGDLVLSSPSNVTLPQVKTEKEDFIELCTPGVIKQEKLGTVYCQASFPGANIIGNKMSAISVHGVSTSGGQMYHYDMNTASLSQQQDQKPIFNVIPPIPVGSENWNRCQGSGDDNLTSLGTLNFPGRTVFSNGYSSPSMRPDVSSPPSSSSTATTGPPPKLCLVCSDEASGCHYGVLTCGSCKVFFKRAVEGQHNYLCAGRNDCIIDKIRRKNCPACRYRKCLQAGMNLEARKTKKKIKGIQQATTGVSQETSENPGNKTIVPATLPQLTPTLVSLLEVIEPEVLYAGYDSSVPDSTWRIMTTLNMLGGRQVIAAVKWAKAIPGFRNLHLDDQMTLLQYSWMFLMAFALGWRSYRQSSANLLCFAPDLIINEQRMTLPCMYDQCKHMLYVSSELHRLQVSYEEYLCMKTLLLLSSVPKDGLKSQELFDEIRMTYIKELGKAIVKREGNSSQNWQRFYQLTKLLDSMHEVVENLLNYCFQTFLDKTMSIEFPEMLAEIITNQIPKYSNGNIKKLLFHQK
Observation Type: Emax (%)

input_smiles=CC[C@]12Cc3cnn(-c4ccc(F)cc4)c3C=C1CC[C@@]2(O)CCc1ncccc1F experimental_result=44

(a) O=C(NCCO)c1ccccc1CC[C@]1(O)CCC2=Cc3c(cnn3-c3ccc(F)cc3)C[C@@]21C1CC1
(b) N#Cc1cccnc1CC[C@]1(O)CCC2=Cc3c(cnn3-c3ccc(F)cc3)C[C@@]21C1CC1
(c) NC(=O)c1cc(F)cnc1CC[C@]1(O)CCC2=Cc3c(cnn3-c3ccc(F)cc3)C[C@@]21C1CC1
List items by Emax in falling order. Reply: labels, ordered per the request.
a, b, c

###

molecular target: human GR (Homo sapiens); construct: naturally expresses the human GR; endogenous in cells; test: Trans-activation modulation of glucocorticoid receptor (GRAMMER), MMTV-LUC reporter in A549 cells; assay type: cell-based; conditions: A549, A549 cells; Emax relative to the activity obtained with 300 nM dexamethasone; read-out: Transactivation A549 Cells Grammer Emax (%)
Observation Type: Emax (%)

molecule=O[C@@]1(CCc2cc(C(F)(F)F)ccn2)CCC2=Cc3c(cnn3-c3ccc(F)cc3)C[C@@]21C1CC1 observation_type=Emax experimental_result=11

(I) CC[C@]12Cc3cnn(-c4ccc(F)cc4)c3C=C1CC[C@@]2(O)CC1OC(=O)c2ccccc21 (stereo partly drawn)
(II) NC(=O)c1ccccc1CC[C@]1(O)CCC2=Cc3c(cnn3-c3ccc(F)cc3)C[C@@]21C1CC1
(III) NC(=O)Cc1ccccc1CC[C@]1(O)CCC2=Cc3c(cnn3-c3ccc(F)cc3)C[C@@]21C1CC1
(IV) CC[C@]12Cc3cnn(-c4cccc(F)c4)c3C=C1CC[C@@]2(O)CCc1cccc(F)c1C(N)=O
List items by Emax in falling order. Reply: labels, ordered per the request.
IV, I, II, III

###

Target: human GR (Homo sapiens)
Construct: naturally expresses the human GR; endogenous in cells
Test: Trans-activation modulation of glucocorticoid receptor (GRAMMER), MMTV-LUC reporter in A549 cells
Assay type: cell-based
Details: A549, A549 cells; Emax relative to the activity obtained with 300 nM dexamethasone; read-out: Transactivation A549 Cells Grammer Emax (%)
Description: Trans-Activation Modulation of Glucocorticoid Receptor (GRAMMER) […] The routine transient assay consists of plating 7,000-25,000 cells/well of a white, clear-bottom 96-well plate. […] The cells are trypsinized and counted to the right cell number in the proper amount of fresh media. […] Antagonist activity is calculated by determining the decrease in dexamethasone-induced activity in response to compound treatment relative to samples that were treated with dexamethasone alone. […]
Observation Type: Emax (%)

compound="CC[C@]12Cc3cnn(-c4ccc(F)cc4)c3C=C1CC[C@@]2(O)CCc1ncccc1C(N)=O [Example 52]" experimental_target="human GR (Homo sapiens)" experimental_result=59

(P) CC[C@]12Cc3cnn(-c4ccc(F)cc4)c3C=C1CC[C@@]2(O)CCc1cc(C)ccn1 [Example 33]
(Q) NC(=O)c1ccccc1CC[C@]1(O)CCC2=Cc3c(cnn3-c3cccc(F)c3)C[C@@]21C1CC1 [Example 7]
(R) CC[C@]12Cc3cnn(-c4cccnc4)c3C=C1CC[C@@]2(O)CCc1cccc(F)c1C(N)=O [Example 14]
// ascending sort on recorded Emax Reply: labels, ordered per the request.
Q, P, R
(Q: 7%, P: 27%, R: 51%)
